These data points were gathered from patent US20210338782A1.

assay: Solid state (thermolytic) stability of TBR-760 salt forms, open container, UPLC peak purity and appearance; type: physicochemical; details: 40° C. at 75% RH, open container, 2 wk
Counter-ions that a name gives are not always drawn.
READOUT: Appearance, T = 2 wk

[
  {
    "COMPOUND": "CCCN1C[C@H](CSCC(=O)NCCCC[C@@H](NC(=O)CSC[C@@H]2C[C@@H]3c4cccc5[nH]cc(c45)C[C@H]3N(CCC)C2)C(=O)N[C@H]2CSSC[C@@H](C(=O)N[C@H](C(N)=O)[C@@H](C)O)NC(=O)[C@H](CC)NC(=O)[C@H](CCCCN)NC(=O)[C@@H](Cc3c[nH]c4ccccc34)NC(=O)[C@H](Cc3ccc(O)cc3)NC2=O)C[C@@H]2c3cccc4[nH]cc(c34)C[C@H]21 [TBR-760 sulfate]",
    "READOUT": "Appearance, T = 2 wk",
    "RECORDED_MEASUREMENT": "White"
  },
  {
    "COMPOUND": "CCCN1C[C@H](CSCC(=O)NCCCC[C@@H](NC(=O)CSC[C@@H]2C[C@@H]3c4cccc5[nH]cc(c45)C[C@H]3N(CCC)C2)C(=O)N[C@H]2CSSC[C@@H](C(=O)N[C@H](C(N)=O)[C@@H](C)O)NC(=O)[C@H](CC)NC(=O)[C@H](CCCCN)NC(=O)[C@@H](Cc3c[nH]c4ccccc34)NC(=O)[C@H](Cc3ccc(O)cc3)NC2=O)C[C@@H]2c3cccc4[nH]cc(c34)C[C@H]21 [TBR-760 chloride, hydrochloride salt]",
    "READOUT": "Appearance, T = 2 wk",
    "RECORDED_MEASUREMENT": "White"
  }
]

---

assay: Solid state (thermolytic) stability of TBR-760 salt forms, open container, UPLC peak purity and appearance; assay type: physicochemical; details: 40° C. at 75% RH, open container, 2 wk
Structures can show the parent of a compound that is named as a salt.

[
  {
    "COMPOUND": "CCCN1C[C@H](CSCC(=O)NCCCC[C@@H](NC(=O)CSC[C@@H]2C[C@@H]3c4cccc5[nH]cc(c45)C[C@H]3N(CCC)C2)C(=O)N[C@H]2CSSC[C@@H](C(=O)N[C@H](C(N)=O)[C@@H](C)O)NC(=O)[C@H](CC)NC(=O)[C@H](CCCCN)NC(=O)[C@@H](Cc3c[nH]c4ccccc34)NC(=O)[C@H](Cc3ccc(O)cc3)NC2=O)C[C@@H]2c3cccc4[nH]cc(c34)C[C@H]21 [TBR-760 mesylate]",
    "Appearance, T = 2 wk": "White"
  },
  {
    "COMPOUND": "CCCN1C[C@H](CSCC(=O)NCCCC[C@@H](NC(=O)CSC[C@@H]2C[C@@H]3c4cccc5[nH]cc(c45)C[C@H]3N(CCC)C2)C(=O)N[C@H]2CSSC[C@@H](C(=O)N[C@H](C(N)=O)[C@@H](C)O)NC(=O)[C@H](CC)NC(=O)[C@H](CCCCN)NC(=O)[C@@H](Cc3c[nH]c4ccccc34)NC(=O)[C@H](Cc3ccc(O)cc3)NC2=O)C[C@@H]2c3cccc4[nH]cc(c34)C[C@H]21 [TBR-760 tosylate]",
    "Appearance, T = 2 wk": "White"
  },
  {
    "COMPOUND": "CCCN1C[C@H](CSCC(=O)NCCCC[C@@H](NC(=O)CSC[C@@H]2C[C@@H]3c4cccc5[nH]cc(c45)C[C@H]3N(CCC)C2)C(=O)N[C@H]2CSSC[C@@H](C(=O)N[C@H](C(N)=O)[C@@H](C)O)NC(=O)[C@H](CC)NC(=O)[C@H](CCCCN)NC(=O)[C@@H](Cc3c[nH]c4ccccc34)NC(=O)[C@H](Cc3ccc(O)cc3)NC2=O)C[C@@H]2c3cccc4[nH]cc(c34)C[C@H]21 [TBR-760 acetate]",
    "Appearance, T = 2 wk": "White"
  }
]
